Test system: EKVX NSCLC
Test: NCI tumour cell line growth inhibition, 48 h
READOUT LABEL: TGI

# SAMPLE SMILES, RESULT
rows = [
    ("Cc1nc(C)c(C(=O)NNC(=O)c2ccccc2)cc1C(=O)NNC(=O)c1ccccc1", "> 10 µM"),
    ("NS(=O)(=O)c1ccc(N=Nc2cc3ccccc3c(C(=O)O)c2O)cc1", "> 100 µM"),
]

Return value of TGI for input Cc1cccc(Cc2cnc(NC(=O)/C=C/c3ccco3)s2)c1 , no commentary. > 100 µM

====

System: HOP-62 NSCLC
Assay: NCI tumour cell line growth inhibition, 48 h; in the data active = GI50 below about 0.43 µM; inactive = the rest
# valid calls are y (active), n (inactive); nothing else

# COMPOUND, LABEL VALUE
records = [
    ("Cc1cncc2cccc(S(=O)(=O)N3CCCNC[C@@H]3C)c12", "n"),
    ("Nc1cc2ccncc2c2ccccc12", "n"),
]

Which outcome was assigned to S=C1NC2=C(CCOc3c2ccc2ccccc32)C(c2ccc(Cl)cc2)N1 (centres undefined) in this test? n

// return assay outcome for Cn1cc(C2=C(c3cn(C)c4cc(Cl)ccc34)C(=O)NC2=O)c2ccccc21 y

What call does the record list for NC(=S)c1cn(C2OC(CO)C(O)C2O)c2ncnc(N)c12 (centres undefined) ? y

Dear colleague, could you share the recorded outcome for O=C(CN1CCN(c2cc3c(cc2F)c(=O)c(C(=O)O)cn3C2CC2)CC1)Nc1ccc(C(=O)/C=C/c2ccccc2)cc1 when you have a moment? n

Hi, do you know how O=C(/C=C(/C=C/c1csc2ccccc12)OB(F)F)/C=C/c1csc2ccccc12 came out in this test? n

Any idea what this test logged for CN(C)CC1CCCCCCCCCCC1=O (centres undefined) ? n

Per the assay record, what outcome was assigned to Fc1ccc(-c2ncn(C3CCNCC3)c2-c2ccnc(Oc3ccc(Oc4ccccc4)cc3)n2)cc1 ? n
